B1: LINE1-mini (parent)
chain: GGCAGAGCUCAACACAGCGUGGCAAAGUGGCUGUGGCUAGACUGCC

variants of: B1; test: self-cleavage, relative activity (ratio to wild type); higher = more cleavage; in vitro, sequencing; the parent is a self-cleaving ribozyme
Listed variants paired with reported self-cleavage
Test Readout: self-cleavage

• G7U A26C = 0.24
• U34C G40A = 0.11
• G5A C46A = 0.11
• C37U U43A = 0.11
• G1U G40U = 0.08
• A6U A39G = 0.04
• G7C G40A = 0.13
• A14G A26C = 0.67
• G22A C42A = 0.35
• A26C G33C = 0.07
• U20A G27A = 0.83
• A11U U32A = 0.03
• G5C G44C = 0.04
• A11C U38C = 0.04
• U9C U32G = 0.03
• A6U U43C = 0.51
• G36A A41U = 0.44
• U32A U43A = 0.08
• U20C A39G = 0.06
• G22C U43A = 0.12
• G22A C46G = 1.22
• A6C C45G = 0.09
